Test system: A549 (human lung epithelial cells)
assay name: Sulforhodamine B (SRB) cytotoxicity assay
Format: cell-based
condition label: 48 h
metric: IC50 (µM)
Report the figure in µM without appending any unit label.

Notebook: pull reported IC50 for A549 (human lung epithelial cells), entry Nc1ccc(C(=O)CC2(O)c3ccccc3-n3c2nc2ccccc2c3=O)cc1 (centres unmarked)
321

// fetch A549 (human lung epithelial cells) IC50 for Cc1ccc(-c2nc3ccccc3s2)cc1
475

GET /values?readout=IC50&system=A549 (human lung epithelial cells)&item= COc1cc2c(cc1NC(=O)N1CCCCC1c1cccnc1)oc1ccccc12 (centres unmarked)
526

Enter reported IC50 observed with A549 (human lung epithelial cells) for Cc1nc(C)c(C(=O)N(c2cccc(C)c2C)C(C(=O)NC2CCCCC2)c2ccccc2)s1 (centres unmarked)
497

Report IC50 for Cc1ccc(C)c(Cn2nnc3c(O)nc(C4CCCN(C(=O)c5ccc(C(C)(C)C)cc5)C4)nc32)c1 (centres unmarked) tested on A549 (human lung epithelial cells).
369

###

Tested on: Mycobacterium smegmatis (mc^2155)
assay name: Antimycobacterial assay, turbidometric MIC (OD 600 nm)
Assay type: cell-based
condition label: Mycolicibacterium smegmatis, MC^2155; lowest concentration with 90% growth inhibition, 32 hours; read-out: M. smeg MIC
Please provide measured MIC for the entries that follow.
# unit: µM | format: bare number

Dear colleague, I am looking for the recorded MIC of the following compound: O=C(Cn1c(=O)n(Cc2ccc(F)cc2)c(=O)c2ccccc21)Nc1cc(F)ccc1F
39.2

What MIC value was documented for this compound, CCSc1nsc(NC(=O)Nc2ccc(C(F)(F)F)cc2)n1 ?
25.4

Record request: MIC value, item Nc1ccc(C(=O)CSc2nnc3c(n2)CCCC3)cc1
22.7

Suppose we examine the compound O=C(CC1(O)c2ccccc2-n2c1nc1ccccc1c2=O)c1ccccc1 (centres unmarked) ; what MIC value has been reported?
53

# MIC lookup, item N#Cc1ccc(C(=O)CC2(O)c3ccccc3-n3c2nc2ccccc2c3=O)cc1 (centres unmarked)
12.8

Data request, read-out MIC, for O=C(CSc1nnc2scc(-c3ccccc3)n12)Nc1ccc(N2CCCC2)cc1
46.6

Look at this compound and give its reported MIC. Cc1ccc(C)c(Cn2nnc3c(O)nc(C4CCCN(C(=O)c5ccc(C(C)(C)C)cc5)C4)nc32)c1 (centres unmarked)
30.6

Tell me the measured MIC of Nc1ccc(C(=O)CC2(O)c3ccccc3-n3c2nc2ccccc2c3=O)cc1 (centres unmarked) , please.
42.5

###

Tested on: A549 (human lung epithelial cells)
assay name: Sulforhodamine B (SRB) cytotoxicity assay
Type: cell-based
condition label: 48 h
For each record, write down the corresponding IC50.
Give just the number in µM; leave the unit off.

Query (compound): O=C(CSc1nnc2scc(-c3ccccc3)n12)Nc1ccc(N2CCCC2)cc1 [Compound H127] ; field requested: IC50
411

Bench note: what IC50 did N#Cc1ccc(C(=O)CC2(O)c3ccccc3-n3c2nc2ccccc2c3=O)cc1 (centres unmarked) [Compound H27] show?
902

Name the recorded IC50 for COc1cccc2c1C(=O)c1c(O)c3c(c(O)c1C2=O)C[C@@](O)(C(=O)CO)C[C@@H]3O[C@H]1C[C@H](N)[C@H](O)[C@H](C)O1 [Doxorubicin, reference compound] .
5.2

Which IC50 value belongs to O=C(Cn1c(=O)n(Cc2ccc(F)cc2)c(=O)c2ccccc21)Nc1cc(F)ccc1F [Compound H137] ?
385

Need IC50, item O=C(CSc1nnc(COc2ccc(F)cc2)o1)OC1CCCCC1 [Compound H43]
335

Please look up its IC50: Nc1ccc(C(=O)CSc2nnc3c(n2)CCCC3)cc1 [Compound H134]
424

Given the entry CCSc1nsc(NC(=O)Nc2ccc(C(F)(F)F)cc2)n1 [Compound H94] , report its measured IC50.
443

Which measured IC50 value corresponds to O=C(CC1(O)c2ccccc2-n2c1nc1ccccc1c2=O)c1ccccc1 (centres unmarked) [Compound H26] ?
368

###

For each of the compounds below, state its IC50.
Tested on: HepG2 (human hepatoma cells)
assay name: Sulforhodamine B (SRB) cytotoxicity assay
Format: cell-based
condition label: 48 h
Unit µM implied. Number only.

Given COc1cccc2c1C(=O)c1c(O)c3c(c(O)c1C2=O)C[C@@](O)(C(=O)CO)C[C@@H]3O[C@H]1C[C@H](N)[C@H](O)[C@H](C)O1 [Doxorubicin, reference compound] , state its recorded IC50.
4.6

Could you tell me which IC50 is on file for Cc1ccc(C)c(Cn2nnc3c(O)nc(C4CCCN(C(=O)c5ccc(C(C)(C)C)cc5)C4)nc32)c1 (centres unmarked) ?
357

Can you look up the measured IC50 of Cc1ccc(-c2nc3ccccc3s2)cc1 for me?
408

Find the recorded IC50 belonging to CCSc1nsc(NC(=O)Nc2ccc(C(F)(F)F)cc2)n1 and report it.
599

Could you tell me which IC50 is on file for COc1cc2c(cc1NC(=O)N1CCCCC1c1cccnc1)oc1ccccc12 (centres unmarked) ?
510

###

Assign pIC50 to each entry below.
Tested on: HepG2 (human hepatoma cells)
assay name: Sulforhodamine B (SRB) cytotoxicity assay
Type: cell-based
condition label: 48 h
Expect pIC50 as a plain number equal to -log10 of the molar concentration.

What measured pIC50 goes with N#Cc1ccc(C(=O)CC2(O)c3ccccc3-n3c2nc2ccccc2c3=O)cc1 (centres unmarked) ?
3.35

Quick one: pIC50 of O=C(CC1(O)c2ccccc2-n2c1nc1ccccc1c2=O)c1ccccc1 (centres unmarked) ?
3.38

Need pIC50 of O=C(CSc1nnc2scc(-c3ccccc3)n12)Nc1ccc(N2CCCC2)cc1 , thanks.
3.46

Look at this compound and give its reported pIC50. Nc1ccc(C(=O)CSc2nnc3c(n2)CCCC3)cc1
3.43

For the compound O=C(Cn1c(=O)n(Cc2ccc(F)cc2)c(=O)c2ccccc21)Nc1cc(F)ccc1F , what pIC50 is on record?
3.41

Using the record for Nc1ccc(C(=O)CC2(O)c3ccccc3-n3c2nc2ccccc2c3=O)cc1 (centres unmarked) , report its pIC50.
3.44

What value of pIC50 has been reported for the following compound? O=C(CSc1nnc(COc2ccc(F)cc2)o1)OC1CCCCC1
3.43

Value lookup for pIC50; key = Cc1nc(C)c(C(=O)N(c2cccc(C)c2C)C(C(=O)NC2CCCCC2)c2ccccc2)s1 (centres unmarked)
3.10
